# Test system: HeLa cells
# test protocol: Cell cycle assay in HeLa cells
# Assay type: cell-based, human
# measurement conditions: HeLa cells, 150 nM oligomeric compound, 48 hours after treatment; relative to untreated control (UTC=100)
In the oligonucleotide strings, read from the 5' end, every base follows the letter of its sugar. An asterisk marks phosphorothioate; unmarked linkages are phosphodiester. Other units and linkages are bracketed, terminal groups are in braces. A string of capitals states the bases alone. e = 2'-O-(2-methoxyethyl) (MOE); [5mC] = 5-methylcytosine
measurement kind: % cells in cell cycle phase: G1 (%)
Answers are plain numbers, in %.

For every item below, please supply its % cells in cell cycle phase: G1.
1. 327919 (antisense eG*eA*eA*eA*e[5mC]*e[5mC]*e[5mC]*eA*eG*e[5mC]*eA*eG*eA*e[5mC]*eA*eA*eT*eG*eT*eA*eG*e[5mC]*eT) [compound 327919]
2. 327892 (antisense eA*e[5mC]*eT*eT*eT*e[5mC]*eG*eG*eT*eT*eA*eT*e[5mC]*eT*eA*eG*e[5mC]*eT*eT*eT*eA) [compound 327892]
3. 338713 (antisense ACCTCTCAGGAAGACGGACT; all 2'-MOE, all phosphorothioate, methylation of C not given here) [compound 338713]
4. 327956 (antisense e[5mC]*eA*e[5mC]*eA*eG*eT*eT*eG*e[5mC]*e[5mC]*eA*eG*e[5mC]*eT*eG*eA*eG*eA*eT*eT*eA) [compound 327956]

Data returned:
[80, 74, 95, 91]

* * *

# Test system: Glut4
# test protocol: Glut4 mRNA expression in adipocytes (real-time PCR)
# Assay type: cell-based, human
# measurement conditions: Table 17; differentiating adipocytes; control = treatment with ISIS 342673
In the oligonucleotide strings, read from the 5' end, every base follows the letter of its sugar. An asterisk marks phosphorothioate; unmarked linkages are phosphodiester. Other units and linkages are bracketed, terminal groups are in braces. A string of capitals states the bases alone. e = 2'-O-(2-methoxyethyl) (MOE); [5mC] = 5-methylcytosine
I'd appreciate it if you could supply GLUT4 mRNA values for the items below.

328139 (eT*eA*e[5mC]*eT*eT*eT*eT*e[5mC]*eA*eT*eT*e[5mC]*e[5mC]*e[5mC]*e[5mC]*eT*e[5mC]*eA*e[5mC]*e[5mC]*eA; anti-miR) [compound 328139] | 106.3 percentage of control
328120 (antisense eA*eA*eG*eA*eA*eG*eG*eA*eA*eG*eG*eA*eG*eG*eG*eA*eA*eA*eG*e[5mC]*eA) [compound 328120] | 94.8 percentage of control
328134 (eA*eA*eT*eT*eG*eG*eA*e[5mC]*eA*eA*eA*eG*eT*eG*e[5mC]*e[5mC]*eT*eT*eT*e[5mC]*eA; anti-miR) [compound 328134] | 88.3 percentage of control
328125 (antisense eT*eA*eT*eG*eA*eA*eA*eT*eG*e[5mC]*e[5mC]*eA*eG*eA*eG*e[5mC]*eT*eG*e[5mC]*e[5mC]*eA) [compound 328125] | 99.5 percentage of control
328126 (antisense e[5mC]*e[5mC]*eA*eA*eG*eT*eG*eT*eT*eA*eG*eA*eG*e[5mC]*eA*eA*eG*eA*eT*e[5mC]*eA) [compound 328126] | 100.7 percentage of control

For every item below, please supply its GLUT4 mRNA.
1. 328137 (eG*eT*eA*eA*eG*e[5mC]*eG*e[5mC]*eA*eG*e[5mC]*eT*e[5mC]*e[5mC]*eA*e[5mC]*eA*eG*eG*e[5mC]*eT; anti-miR) [compound 328137]
2. 328116 (antisense e[5mC]*eA*eA*eA*eA*eT*eT*eG*e[5mC]*eA*eA*eG*e[5mC]*eA*eA*eA*eT*eT*eG*e[5mC]*eA) [compound 328116]
3. 328127 (antisense eA*eA*e[5mC]*eG*eA*eT*eA*eA*eA*eA*e[5mC]*eA*eT*eA*e[5mC]*eT*eT*eG*eT*e[5mC]*eA) [compound 328127]
4. 328136 (eA*eA*e[5mC]*eT*eA*e[5mC]*eT*eT*e[5mC]*e[5mC]*eA*eG*eA*eG*e[5mC]*eA*eG*eG*eT*eG*eA; anti-miR) [compound 328136]

Data returned:
1. 88.5 percentage of control
2. 75.2 percentage of control
3. 80.8 percentage of control
4. 66.7 percentage of control

For every item below, please supply its GLUT4 mRNA.
1. 328121 (antisense eA*eT*eG*eA*e[5mC]*eT*eA*e[5mC]*eA*eA*eG*eT*eT*eT*eA*eT*eG*eG*e[5mC]*e[5mC]*eA) [compound 328121]
2. 328124 (antisense eA*eG*e[5mC]*eA*eG*eG*eT*eG*eA*eA*eG*eG*e[5mC]*eA*e[5mC]*e[5mC]*eT*eG*eG*e[5mC]*eT) [compound 328124]
3. 328123 (antisense eT*eT*eA*e[5mC]*eA*eG*eG*eT*eG*e[5mC]*eT*eG*e[5mC]*eA*eA*e[5mC]*eT*eG*eG*eA*eA) [compound 328123]
4. 328131 (antisense eA*eT*eA*eT*eG*eT*e[5mC]*eA*eT*eA*eT*e[5mC]*eA*eA*eA*e[5mC]*eT*e[5mC]*e[5mC]*eT*eA) [compound 328131]
5. 328118 (antisense eT*eA*eT*eT*eA*eT*e[5mC]*eA*eG*e[5mC]*eA*eT*e[5mC]*eT*eG*e[5mC]*eT*eT*eG*e[5mC]*eA) [compound 328118]
6. 328119 (antisense eA*eA*eT*eA*eA*e[5mC]*eA*e[5mC]*eA*e[5mC]*eA*eT*e[5mC]*e[5mC]*eA*e[5mC]*eT*eT*eT*eA*eA) [compound 328119]
7. 328133 (eT*eG*eA*eA*eG*eG*eT*eT*e[5mC]*eG*eG*eA*eG*eA*eT*eA*eG*eG*e[5mC]*eT*eA; anti-miR) [compound 328133]

Data returned:
140.8 percentage of control
122.7 percentage of control
162.4 percentage of control
103.6 percentage of control
76.6 percentage of control
95.2 percentage of control
91.9 percentage of control

For every item below, please supply its GLUT4 mRNA.
1. 328122 (antisense e[5mC]*eA*eA*eA*eA*e[5mC]*eA*eT*eA*eA*eA*eA*eA*eT*e[5mC]*e[5mC]*eT*eT*eG*e[5mC]*eA) [compound 328122]
2. 342673 (antisense eA*eG*eA*e[5mC]*eT*eA*eG*e[5mC]*eG*eG*eT*eA*eT*e[5mC]*eT*eT*eT*eA*eT*e[5mC]*e[5mC]*e[5mC]) [compound 342673]

Data returned:
1. 85.9 percentage of control
2. 100.0 percentage of control

* * *

# Test system: IL-12 mRNA
# test protocol: IL-12 mRNA in LPS-activated primary murine macrophages
# Assay type: cell-based, mouse
# measurement conditions: 300 nM oligomeric compound, stimulation with IFN-gamma and LPS; average of 2 experiments; normalized to LPS-treated cells without oligomeric compound
In the oligonucleotide strings, read from the 5' end, every base follows the letter of its sugar. An asterisk marks phosphorothioate; unmarked linkages are phosphodiester. Other units and linkages are bracketed, terminal groups are in braces. A string of capitals states the bases alone. e = 2'-O-(2-methoxyethyl) (MOE); [5mC] = 5-methylcytosine
measurement kind: IL-12 mRNA expression, +IFN % UTC (% UTC)
Answers are plain numbers, in % UTC.

327927 (antisense eT*eG*eT*eA*eA*eA*e[5mC]*e[5mC]*eA*eT*eG*eA*eT*eG*eT*eG*e[5mC]*eT*eG*e[5mC]*eT*eA) [compound 327927] | 33
328133 (eT*eG*eA*eA*eG*eG*eT*eT*e[5mC]*eG*eG*eA*eG*eA*eT*eA*eG*eG*e[5mC]*eT*eA; anti-miR) [compound 328133] | 62

Given item 327901 (antisense eT*eG*eA*eG*e[5mC]*eT*eA*e[5mC]*eA*eG*eT*eG*e[5mC]*eT*eT*e[5mC]*eA*eT*e[5mC]*eT*e[5mC]*eA) [compound 327901] , the value recorded as its IL-12 mRNA expression, +IFN % UTC is 9

* * *

# Tested on: HeLa cells
# test protocol: Cell cycle assay in HeLa cells
# Assay type: cell-based, human
# measurement conditions: HeLa cells, 150 nM oligomeric compound, 24 hours, relative to untreated control (UTC = 100)
In the oligonucleotide strings, read from the 5' end, every base follows the letter of its sugar. An asterisk marks phosphorothioate; unmarked linkages are phosphodiester. Other units and linkages are bracketed, terminal groups are in braces. A string of capitals states the bases alone. e = 2'-O-(2-methoxyethyl) (MOE); [5mC] = 5-methylcytosine; d = 2'-deoxy (DNA)
I'd appreciate it if you could supply % cells in cell cycle phase G2/M values for the items below.
Answers are plain numbers, in %.

Answered examples (2):
328647 (eG*eG*eA*eG*eT*dA*dG*dA*dT*dG*dA*dT*dG*dG*dT*eT*eA*eG*e[5mC]*e[5mC]; antisense) [compound 328647] | 119
341787 (antisense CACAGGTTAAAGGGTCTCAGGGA; all 2'-MOE, all phosphorothioate, methylation of C not given here) [compound 341787] | 144

For every item below, please supply its % cells in cell cycle phase G2/M.
1. 340925 (antisense GTGGTAATCCCTGGCAATGTGAT; sugars from the 5' end e5 d10 e8, all phosphorothioate, methylation of C not given here) [compound 340925]
2. 338750 (antisense TCCGCGGGGGCGGGGAGGCT; all 2'-MOE, all phosphorothioate, methylation of C not given here) [compound 338750]
3. 327922 (antisense eT*e[5mC]*eA*eG*eT*eT*eT*eT*eG*e[5mC]*eA*eT*eG*eG*eA*eT*eT*eT*eG*e[5mC]*eA*e[5mC]*eA) [compound 327922]
4. 327903 (antisense eA*eA*e[5mC]*eT*eA*eT*eA*e[5mC]*eA*eA*e[5mC]*e[5mC]*eT*eA*e[5mC]*eT*eA*e[5mC]*e[5mC]*eT*e[5mC]*eA) [compound 327903]
5. 327908 (antisense e[5mC]*eA*eA*eT*eG*e[5mC]*eA*eA*e[5mC]*eT*eA*e[5mC]*eA*eA*eT*eG*e[5mC]*eA*e[5mC]) [compound 327908]
6. 327877 (antisense e[5mC]*eG*e[5mC]*e[5mC]*eA*eA*eT*eA*eT*eT*eT*eA*e[5mC]*eG*eT*eG*e[5mC]*eT*eG*e[5mC]*eT*eA) [compound 327877]

Data returned:
[117, 97, 114, 106, 106, 159]

These entries and their values trace back to patent US8178506B2.
